B1: ZNF449 (parent)
chain: HTGERPYECTVCKKRFTRRSHLIG

- Variants of: B1
- METHOD_DESCRIPTION: protein stability index of a GFP-peptide fusion (GPS, HEK-293T) (PSI 1-6); higher = more stable;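 further: lentivirally expressed fusions sorted by FACS into six bins by GFP to DsRed ratio, PSI derived from sequencing read proportions per bin multiplied by bin number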
- CONDITIONS: c terminus: a fixed tail appended
PROPERTY: protein stability index
The response must contain the number and no unit.

Please supply the value of reported protein stability index for the item HTGERPYECTKCKKRFTRRSHLIG [V11K]
3.82

Please supply the value of reported protein stability index for the item HTGERPYECTVCKKRFTRLSHLIG [R19L]
1.53

Please supply the value of reported protein stability index for the item HTGERPYECTRCKKRFTRRSHLIG [V11R]
2.39

Please supply the value of reported protein stability index for the item HTGERPYECAVCKKRFTRRSHLIG [T10A]
2.42

Please supply the value of reported protein stability index for the item HTGERPYECTVCKKRFTRRSHLTG [I23T]
2.41

Please supply the value of reported protein stability index for the item HTLERPYECTVCKKRFTRRSHLIG [G3L]
3.83

Please supply the value of reported protein stability index for the item HTGERPFECTVCKKRFTRRSHLIG [Y7F]
1.44

Please supply the value of reported protein stability index for the item HTGERPYECTVCKKRFTRRSYLIG [H21Y]
2.35

Please supply the value of reported protein stability index for the item HTGERPYECTTCKKRFTRRSHLIG [V11T]
3.47

Please supply the value of reported protein stability index for the item HTGERPYECTVCAKRFTRRSHLIG [K13A]
1.63

Please supply the value of reported protein stability index for the item HTGERPYECTVCKKRFTRRPHLIG [S20P]
2.31

Please supply the value of reported protein stability index for the item HTGERPYECTVCKKRFHRRSHLIG [T17H]
3.25

Please supply the value of reported protein stability index for the item HTGEREYECTVCKKRFTRRSHLIG [P6E]
2.34

Please supply the value of reported protein stability index for the item HTGERPYTCTVCKKRFTRRSHLIG [E8T]
2

Please supply the value of reported protein stability index for the item HTGERPYECTVCKKLFTRRSHLIG [R15L]
1.39

Please supply the value of reported protein stability index for the item HTGERPYECTVCKKRQTRRSHLIG [F16Q]
2.4

Please supply the value of reported protein stability index for the item HTGERPYECTVCKKWFTRRSHLIG [R15W]
2.56

Please supply the value of reported protein stability index for the item HTGERPYECTVCKKNFTRRSHLIG [R15N]
2.58

Please supply the value of reported protein stability index for the item HTGERPYECTDCKKRFTRRSHLIG [V11D]
2.44

Please supply the value of reported protein stability index for the item HTGERPYECTVCKKRFTRRNHLIG [S20N]
2.69

Please supply the value of reported protein stability index for the item HTGERPYECTVCKKRFTARSHLIG [R18A]
2.13

Please supply the value of reported protein stability index for the item HTGERPYECTMCKKRFTRRSHLIG [V11M]
1.91

Please supply the value of reported protein stability index for the item HTGERPYECTVCKKRFTRRSRLIG [H21R]
2.37

Please supply the value of reported protein stability index for the item HTGERPYECIVCKKRFTRRSHLIG [T10I]
3.07

Please supply the value of reported protein stability index for the item HTGERPYECTVCEKRFTRRSHLIG [K13E]
2.42

Please supply the value of reported protein stability index for the item HTGERPYECTVCKPRFTRRSHLIG [K14P]
1.97

Please supply the value of reported protein stability index for the item HTGERPYECTVCKKRFTLRSHLIG [R18L]
1.74

Please supply the value of reported protein stability index for the item HTGERPYECTVCKKHFTRRSHLIG [R15H]
3.03

Please supply the value of reported protein stability index for the item HTGERPYECTVCKIRFTRRSHLIG [K14I]
2.26

Please supply the value of reported protein stability index for the item HTGERPYECTVCKKRFTRKSHLIG [R19K]
2.54

Please supply the value of reported protein stability index for the item HTGERPYECTVCKKRFTRPSHLIG [R19P]
1.94

Please supply the value of reported protein stability index for the item HTGERPYECTVCKKRFWRRSHLIG [T17W]
2.03

Please supply the value of reported protein stability index for the item HTGESPYECTVCKKRFTRRSHLIG [R5S]
2.7

Please supply the value of reported protein stability index for the item HTGERPYECTVCKKRFTRRSHLMG [I23M]
1.7

Please supply the value of reported protein stability index for the item HTGERPYECTVCKKRFTRRSHLIH [G24H]
1.89

Please supply the value of reported protein stability index for the item HTGERPYECTVCKKKFTRRSHLIG [R15K]
2.52

Please supply the value of reported protein stability index for the item HTGERPYECTVCKKRFTRRWHLIG [S20W]
3.27

Please supply the value of reported protein stability index for the item HTNERPYECTVCKKRFTRRSHLIG [G3N]
1.85

Please supply the value of reported protein stability index for the item HTGERPYPCTVCKKRFTRRSHLIG [E8P]
1.94

Please supply the value of reported protein stability index for the item HTGERPYECSVCKKRFTRRSHLIG [T10S]
2.52

Please supply the value of reported protein stability index for the item HTGERPCECTVCKKRFTRRSHLIG [Y7C]
3.74

Please supply the value of reported protein stability index for the item HTGERPYECTVCKVRFTRRSHLIG [K14V]
2.09

Please supply the value of reported protein stability index for the item HTGERPYECTVRKKRFTRRSHLIG [C12R]
3.79

Please supply the value of reported protein stability index for the item HTGETPYECTVCKKRFTRRSHLIG [R5T]
3

Please supply the value of reported protein stability index for the item HTGERPYECTVCKKRFTRRSHLIF [G24F]
1.2

Please supply the value of reported protein stability index for the item HTPERPYECTVCKKRFTRRSHLIG [G3P]
2.52

Please supply the value of reported protein stability index for the item HCGERPYECTVCKKRFTRRSHLIG [T2C]
1.42

Please supply the value of reported protein stability index for the item HTGRRPYECTVCKKRFTRRSHLIG [E4R]
1.96

Please supply the value of reported protein stability index for the item HTGERPYECTVCKKRFTRRSALIG [H21A]
2.22

Please supply the value of reported protein stability index for the item HTGERPYWCTVCKKRFTRRSHLIG [E8W]
2.23

Please supply the value of reported protein stability index for the item HTGERPYECTVCKKRFTRRSHLIE [G24E]
1.92

Please supply the value of reported protein stability index for the item HTGERPYECTVCKKRFTRDSHLIG [R19D]
1.62

Please supply the value of reported protein stability index for the item CTGERPYECTVCKKRFTRRSHLIG [H1C]
2.48

Please supply the value of reported protein stability index for the item HTGERPYECTVCKKRFTRRSHLIV [G24V]
1.6

Please supply the value of reported protein stability index for the item HTGERPYECTVCKKRFTRRSHLLG [I23L]
2

Please supply the value of reported protein stability index for the item HTGERPYECTVCKLRFTRRSHLIG [K14L]
1.66

Please supply the value of reported protein stability index for the item HTGENPYECTVCKKRFTRRSHLIG [R5N]
1.64

Please supply the value of reported protein stability index for the item HTGERPYEGTVCKKRFTRRSHLIG [C9G]
3.94

Please supply the value of reported protein stability index for the item HTGERPYECTVCKKRFTRSSHLIG [R19S]
2.76

Please supply the value of reported protein stability index for the item HTGERPQECTVCKKRFTRRSHLIG [Y7Q]
2.21

Please supply the value of reported protein stability index for the item HTGERPYECTVCKKRFTRRSHLKG [I23K]
4.19

Please supply the value of reported protein stability index for the item HTGEPPYECTVCKKRFTRRSHLIG [R5P]
2.01

Please supply the value of reported protein stability index for the item HTGERPYECTVCKKRFTRRSQLIG [H21Q]
1.82

Please supply the value of reported protein stability index for the item ITGERPYECTVCKKRFTRRSHLIG [H1I]
1.74

Please supply the value of reported protein stability index for the item HTGERPYECTVFKKRFTRRSHLIG [C12F]
3.01

Please supply the value of reported protein stability index for the item HTGERPYECTVCKKRFTRRSFLIG [H21F]
1.83

Please supply the value of reported protein stability index for the item HTGERPYECTVCKKRFTRTSHLIG [R19T]
1.84

Please supply the value of reported protein stability index for the item HTGERHYECTVCKKRFTRRSHLIG [P6H]
2.64

Please supply the value of reported protein stability index for the item HTGARPYECTVCKKRFTRRSHLIG [E4A]
1.42

Please supply the value of reported protein stability index for the item HTGERPYEYTVCKKRFTRRSHLIG [C9Y]
3.67

Please supply the value of reported protein stability index for the item HGGERPYECTVCKKRFTRRSHLIG [T2G]
2.55

Please supply the value of reported protein stability index for the item HTGERPYECTVCKKRFTRRTHLIG [S20T]
2.18

Please supply the value of reported protein stability index for the item HTGFRPYECTVCKKRFTRRSHLIG [E4F]
1.9

Please supply the value of reported protein stability index for the item HTGERPYECTVCKKRFTRRSTLIG [H21T]
2.83

Please supply the value of reported protein stability index for the item HTGERPYVCTVCKKRFTRRSHLIG [E8V]
2.35

Please supply the value of reported protein stability index for the item HTGERPYECTVCKMRFTRRSHLIG [K14M]
1.61

Please supply the value of reported protein stability index for the item HTGERPWECTVCKKRFTRRSHLIG [Y7W]
1.4

Please supply the value of reported protein stability index for the item HTGERPYICTVCKKRFTRRSHLIG [E8I]
2.74

Please supply the value of reported protein stability index for the item HTGERPYECTVCKKRFTRRSHLHG [I23H]
3.06

Please supply the value of reported protein stability index for the item HTGERPYESTVCKKRFTRRSHLIG [C9S]
3.69

Please supply the value of reported protein stability index for the item HTGSRPYECTVCKKRFTRRSHLIG [E4S]
2.53

Please supply the value of reported protein stability index for the item HTGERPYECTVCKKRFTRRIHLIG [S20I]
1.57

Please supply the value of reported protein stability index for the item HTGERPYECTVCKKRFTRRSHLIC [G24C]
2.48

Please supply the value of reported protein stability index for the item HTGEHPYECTVCKKRFTRRSHLIG [R5H]
2.67

Please supply the value of reported protein stability index for the item HTGERPYECTVCKKRFTRRSHLIM [G24M]
1.83

Please supply the value of reported protein stability index for the item HTGERPYECTVCKKRFPRRSHLIG [T17P]
1.78

Please supply the value of reported protein stability index for the item HTGERPYECTVCKKRFTRRGHLIG [S20G]
2.47

Please supply the value of reported protein stability index for the item HWGERPYECTVCKKRFTRRSHLIG [T2W]
2.13

Please supply the value of reported protein stability index for the item HTGERPYECTVCKKRFARRSHLIG [T17A]
2.19

Please supply the value of reported protein stability index for the item HTGERPYECTVCKKRFTRRSHLPG [I23P]
2.23

Please supply the value of reported protein stability index for the item KTGERPYECTVCKKRFTRRSHLIG [H1K]
2.6
